assay-system: COX-1 (Ovis aries, UniProt P05979)
Construct: purchased Cayman
Sequence (P05979 25-600): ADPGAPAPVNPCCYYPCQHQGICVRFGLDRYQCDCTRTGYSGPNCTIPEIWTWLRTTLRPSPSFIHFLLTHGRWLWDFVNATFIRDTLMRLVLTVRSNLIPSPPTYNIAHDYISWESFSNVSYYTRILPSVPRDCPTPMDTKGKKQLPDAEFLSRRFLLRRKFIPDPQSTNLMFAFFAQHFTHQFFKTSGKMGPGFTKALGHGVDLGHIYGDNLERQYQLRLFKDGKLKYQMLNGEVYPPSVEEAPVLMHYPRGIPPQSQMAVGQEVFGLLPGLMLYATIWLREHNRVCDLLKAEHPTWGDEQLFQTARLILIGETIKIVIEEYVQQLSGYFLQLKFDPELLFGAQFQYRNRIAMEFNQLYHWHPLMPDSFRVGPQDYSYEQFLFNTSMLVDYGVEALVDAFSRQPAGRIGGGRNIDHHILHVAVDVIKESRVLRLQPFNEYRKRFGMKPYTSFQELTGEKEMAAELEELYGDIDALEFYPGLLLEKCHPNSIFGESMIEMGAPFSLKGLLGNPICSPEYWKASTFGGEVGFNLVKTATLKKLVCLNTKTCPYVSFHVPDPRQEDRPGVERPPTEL
method-description: COX (ovine) colorimetric inhibitor screening assay, COX-1
Format: biochemical
cond: selectivity index
// SI (IC50 for COX-1/IC50 for COX-2) lookup, one value per entry

Q) # return SI (IC50 for COX-1/IC50 for COX-2) of O=C(Cc1c[nH]c2ccccc12)NNC(=S)Nc1ccc(S(=O)(=O)N2CCCCC2)cc1 (system: COX-1 (Ovis aries, UniProt P05979))
A) >1.69

Q) # return SI (IC50 for COX-1/IC50 for COX-2) of CS(=O)(=O)c1ccc(C=NNC(=O)Cc2c[nH]c3ccccc23)cc1 (system: COX-1 (Ovis aries, UniProt P05979))
A) 2.39

Q) # return SI (IC50 for COX-1/IC50 for COX-2) of COc1ccc2[nH]cc(C=NNC(=O)Cc3c[nH]c4ccccc34)c2c1 (system: COX-1 (Ovis aries, UniProt P05979))
A) >2.25

Q) # return SI (IC50 for COX-1/IC50 for COX-2) of CC(=NNC(=O)Cc1c[nH]c2ccccc12)c1ccc(N2CCOCC2)cc1 (system: COX-1 (Ovis aries, UniProt P05979))
A) 0.97

Where do these numbers come from? They come from paper PMC9916685.
